Items are presented alongside their recorded Wnt reporter firefly/Renilla luciferase ratio.
- Test system: HEK293T (UBE3A T485A transfected, BAR Wnt reporter)
- testName: Wnt reporter firefly/Renilla luciferase ratio relative to plate median (fold (linear ratio)); higher = more Wnt/beta-catenin reporter activation
- conditions: concentration: 0.01 uM; 24 h
Over roughly 1,100 compounds, “Wnt reporter firefly/Renilla luciferase ratio relative to plate median” has its median near 1.1; the highest 2% begin near 1.6. The list comes from a sample in which the highest values are over-represented; it also holds close analogues and randomly drawn compounds.
propertyName: Wnt reporter firefly/Renilla luciferase ratio

compound	value
CNC(=O)CSP(=S)(OC)OC [Dimethoate]	0.95
CO/N=C(/C1=NOCCO1)c1ccccc1Oc1ncnc(Oc2ccccc2Cl)c1F	1.16
CC1(C)C(C=C(Cl)Cl)C1C(=O)OCc1cccc(Oc2ccccc2)c1 (stereo not given)	0.82
CCCOC/C(=N\c1ccc(Cl)cc1C(F)(F)F)n1ccnc1	1.29
CCC(=NOC/C=C/Cl)C1=C(O)CC(C2CCOCC2)CC1=O (stereo not given)	0.655
CCNc1nc(NC(C)C)nc(SC)n1	0.686
CN(C)C(=O)Nc1cccc(C(F)(F)F)c1	1.3
COP(=S)(OC)SCn1nnc2ccccc2c1=O	1.01
Oc1ccc(Cl)cc1Cc1ccccc1	0.901
CC(C)C1(C)N=C(c2ncccc2C(=O)O)NC1=O (stereo not given)	1.14

###

- Test system: HEK293T (UBE3A T485A transfected, BAR Wnt reporter)
- testName: Wnt reporter firefly/Renilla luciferase ratio relative to plate median (fold (linear ratio)); higher = more Wnt/beta-catenin reporter activation
- conditions: concentration: 0.1 uM; 24 h
Whole data set: some 1,100 compounds, median “Wnt reporter firefly/Renilla luciferase ratio relative to plate median” near 1.1, cut for the highest 2% near 1.6. Only a selection was taken, and the highest values are over-represented in it overall.
propertyName: Wnt reporter firefly/Renilla luciferase ratio

compound	value
CCCCOC(=O)[C@@H](C)Oc1ccc(Oc2ccc(C#N)cc2F)cc1	0.959
c1ccc(NNc2ccccc2)cc1 [1,2-Diphenylhydrazine]	1.25
Cc1c(COC(=O)[C@H]2[C@@H](/C=C(\Cl)C(F)(F)F)C2(C)C)cccc1-c1ccccc1	1.35
O=[N+]([O-])c1ccc(Cl)cc1	1.04
c1ccc(C2CO2)cc1 (centres undefined) [Styrene oxide]	1.23
Nc1c(Cl)cc([N+](=O)[O-])cc1Cl	1.64
N#CC(Br)(Br)C(N)=O [2,2-Dibromo-3-nitrilopropionamide]	1.26
O=[N+]([O-])c1ccc(Cl)c(Cl)c1	1.21
OC(c1ccc(Cl)cc1)(c1ccc(Cl)cc1)C(Cl)(Cl)Cl	1.37

###

- System: HEK293T (UBE3A T485A transfected, BAR Wnt reporter)
- testName: Wnt reporter firefly/Renilla luciferase ratio relative to plate median (fold (linear ratio)); higher = more Wnt/beta-catenin reporter activation
- conditions: concentration: 10 uM; 24 h
Over roughly 1,100 compounds, “Wnt reporter firefly/Renilla luciferase ratio relative to plate median” has its median near 1.1; the highest 2% begin near 1.6. This is one part of a sample in which the highest values are shown more often than they occur.
Items are presented alongside their recorded Wnt reporter firefly/Renilla luciferase ratio.
propertyName: Wnt reporter firefly/Renilla luciferase ratio

compound	value
C=CC(N)=O [Acrylamide]	0.839
CC(=O)N=C1C=CC(=O)C=C1	0.923
C[C@]12CCC(=O)C=C1CC[C@@H]1[C@@H]2CC[C@]2(C)C(=O)CC[C@@H]12 [4-Androstene-3,17-dione]	1.12
Clc1ccccc1Cl [1,2-Dichlorobenzene]	0.88
O=C(Oc1ccc(Br)cc1)N1CCN2CCC1CC2	1.09
COC(=O)c1c(C(F)F)nc(C(F)(F)F)c(C2=NCCS2)c1CC(C)C [Thiazopyr]	0.872
CC(C)Nc1nc(Cl)nc(NC(C)C)n1 [Propazine]	1.03
Nn1cnnc1 [4-Amino-1,2,4-triazole]	1.27
Nc1cc(Cl)cc(C(=O)O)c1Cl [Chloramben]	1.34
Clc1cccc(Cl)c1Cl [1,2,3-Trichlorobenzene]	1.05
Cc1cccc([N+](=O)[O-])c1C [1,2-Dimethyl-3-nitrobenzene]	0.848

###

Items are presented alongside their recorded Wnt reporter firefly/Renilla luciferase ratio.
- System: HEK293T (UBE3A T485A transfected, BAR Wnt reporter)
- testName: Wnt reporter firefly/Renilla luciferase ratio relative to plate median (fold (linear ratio)); higher = more Wnt/beta-catenin reporter activation
- conditions: concentration: 1 uM; 24 h
Whole data set: some 1,100 compounds, median “Wnt reporter firefly/Renilla luciferase ratio relative to plate median” near 1.1, cut for the highest 2% near 1.6. The full list was thinned out, with the highest values kept by preference.
propertyName: Wnt reporter firefly/Renilla luciferase ratio

molecule	assayedSystem	value
CC(C)(C)c1ccccc1O [2-tert-Butylphenol]	HEK293T (UBE3A T485A transfected, BAR Wnt reporter)	1.54
Nc1ccc([N+](=O)[O-])cc1 [4-Nitroaniline]	HEK293T (UBE3A T485A transfected, BAR Wnt reporter)	0.817
COC(=O)N(C(=O)N1CO[C@@]2(C(=O)OC)Cc3cc(Cl)ccc3C2=N1)c1ccc(OC(F)(F)F)cc1 [Indoxacarb]	HEK293T (UBE3A T485A transfected, BAR Wnt reporter)	1.2
Oc1cc(Cl)c(Cl)cc1Cl [2,4,5-Trichlorophenol]	HEK293T (UBE3A T485A transfected, BAR Wnt reporter)	0.917
CC(C)=CC1C(C(=O)OCN2C(=O)C3=C(CCCC3)C2=O)C1(C)C (stereo not given) [Tetramethrin]	HEK293T (UBE3A T485A transfected, BAR Wnt reporter)	0.941

###

- System: HEK293T (UBE3A T485A transfected, BAR Wnt reporter)
- testName: Wnt reporter firefly/Renilla luciferase ratio relative to plate median (fold (linear ratio)); higher = more Wnt/beta-catenin reporter activation
- conditions: concentration: 100 uM; 24 h
Whole data set: some 1,100 compounds, median “Wnt reporter firefly/Renilla luciferase ratio relative to plate median” near 1.1, cut for the highest 2% near 1.6. Many of the other results were omitted from the sample, so the highest values are more common in it than they were.
propertyName: Wnt reporter firefly/Renilla luciferase ratio

molecule	value
Nc1ccc2ccccc2c1	0.629
CC(C)N(C(=O)COc1nnc(C(F)(F)F)s1)c1ccc(F)cc1	0.254
CCOc1nc(F)cc2nc(S(=O)(=O)Nc3c(Cl)cccc3Cl)nn12	0.892
CON(C)C(=O)Nc1ccc(Cl)c(Cl)c1	0.524
Nc1nc(N)nc(NC2CC2)n1	1.22
CCOC1Oc2ccc(OS(C)(=O)=O)cc2C1(C)C (stereo not given) [Ethofumesate]	1.86
CN(C)C(=O)Nc1cccc(C(F)(F)F)c1	1.04
CC(C)(C)c1ccccc1O	0.813
NC(=O)[O-].[NH4+] [Ammonium carbamate]	1.31
Cc1ccccc1O	1.15
CN(C)C(=O)Nc1ccc(Cl)cc1	1.04
CCOP(=O)(SC(C)CC)N1CCSC1=O (stereo not given) [Fosthiazate]	0.772
CCC(CC)Nc1c([N+](=O)[O-])cc(C)c(C)c1[N+](=O)[O-]	1.08
CCCCN(CCCC)N=O	1.27
Cn1sc(Cl)cc1=O	0.458
CCN(CC)CCO	1.44
Clc1ccccc1-c1nnc(-c2ccccc2Cl)nn1	1.59
O=C(O)C1C(C(=O)O)C2(Cl)C(Cl)=C(Cl)C1(Cl)C2(Cl)Cl (stereo not given)	1.03
CN(C)c1ccccc1	1.02
CCC(=O)Nc1ccc(Cl)c(Cl)c1	0.294

###

- System: HEK293T (UBE3A T485A transfected, BAR Wnt reporter)
- testName: Wnt reporter firefly/Renilla luciferase ratio relative to plate median (fold (linear ratio)); higher = more Wnt/beta-catenin reporter activation
- conditions: concentration: 1 uM; 24 h
Whole data set: some 1,100 compounds, median “Wnt reporter firefly/Renilla luciferase ratio relative to plate median” near 1.1, cut for the highest 2% near 1.6. The full list was thinned out, with the highest values kept by preference.
Assign rule met whenever Wnt reporter firefly/Renilla luciferase ratio does not fall below 1; assign rule not met whenever it does.

compound	classLabel
CCN(CC)N=O	rule met
Clc1cccc(Cl)c1	rule met
CN(C)C(=S)SSC(=S)N(C)C	rule met
c1ccc(N=Nc2ccccc2)cc1	rule met
CCCCN(CCCC)N=O	rule not met
CCCN(CCC)N=O	rule not met
CCCC1COC(Cn2cncn2)(c2ccc(Cl)cc2Cl)O1 (stereo unspecified)	rule met
COC(=O)c1c(C(F)F)nc(C(F)(F)F)c(C2=NCCS2)c1CC(C)C	rule not met
Cn1sc(Cl)cc1=O	rule met
Nc1ccc(Cl)cc1N	rule met
CN(C)C(=S)[S-].CN(C)C(=S)[S-].[Zn+2]	rule not met

###

- Tested on: HEK293T (UBE3A T485A transfected, BAR Wnt reporter)
- testName: Wnt reporter firefly/Renilla luciferase ratio relative to plate median (fold (linear ratio)); higher = more Wnt/beta-catenin reporter activation
- conditions: concentration: 10 uM; 24 h
In all, about 1,100 compounds were measured (“Wnt reporter firefly/Renilla luciferase ratio relative to plate median”: median about 1.1, highest 2% from about 1.6 on). Many of the other results were omitted from the sample, so the highest values are more common in it than they were.
Assign Satisfied whenever Wnt reporter firefly/Renilla luciferase ratio does not fall below 1; assign Not satisfied whenever it does.

compound	classLabel
CCCN(CCOc1c(Cl)cc(Cl)cc1Cl)C(=O)n1ccnc1 [Prochloraz]	Satisfied
COC(=O)N(C(=O)N1CO[C@@]2(C(=O)OC)Cc3cc(Cl)ccc3C2=N1)c1ccc(OC(F)(F)F)cc1 [Indoxacarb]	Not satisfied
O=C(O)c1c(Cl)ccc2cc(Cl)cnc12 [Quinclorac]	Satisfied
CCOP(=S)(Oc1ccc([N+](=O)[O-])cc1)c1ccccc1 (centres undefined)	Not satisfied
CCCCCCCCCCCCCN1CC(C)OC(C)C1 (centres undefined) [Tridemorph]	Satisfied
CS(=O)(=O)c1cc(C(F)(F)F)ccc1C(=O)c1cnoc1C1CC1 [Isoxaflutole]	Satisfied
CC(C)N1C(=O)c2ccccc2NS1(=O)=O [Bentazone]	Not satisfied
Clc1cccc(C(Cl)(Cl)Cl)n1 [Nitrapyrin]	Satisfied
